System: LOX IMVI melanoma
measurementDescription: NCI tumour cell line growth inhibition, 48 h
Threshold check on TGI: at or above 20 µM gives MET, strictly below gives NOT MET.

[
  {
    "molecule": "CCCNCC(=O)O[C@]1(CC)C(=O)OCc2c1cc1n(c2=O)Cc2cc3ccccc3nc2-1",
    "systemUnderTest": "LOX IMVI melanoma",
    "label": "NOT MET"
  },
  {
    "molecule": "CCSc1cc2c(cc1O)CC[C@@H]1[C@@H]2CC[C@]2(C)[C@@H](O)CC[C@@H]12",
    "systemUnderTest": "LOX IMVI melanoma",
    "label": "MET"
  },
  {
    "molecule": "CCN(CC)CCN(C(=Nc1ccccc1)N1CCCCC1)c1ccccc1",
    "systemUnderTest": "LOX IMVI melanoma",
    "label": "MET"
  },
  {
    "molecule": "N#CC1=C(c2ccccc2)C(=C2Nc3ccccc3N2)C2S/C(=C\\c3ccccc3)C(=O)N2C1=N (centres undefined)",
    "systemUnderTest": "LOX IMVI melanoma",
    "label": "NOT MET"
  },
  {
    "molecule": "Cc1nn2c(nc1=O)sc1ccc3ccccc3c12",
    "systemUnderTest": "LOX IMVI melanoma",
    "label": "MET"
  },
  {
    "molecule": "CC(=NNC(=S)Nc1cccc(C)c1)c1cccc(C(C)=NNC(=S)Nc2cccc(C)c2)n1",
    "systemUnderTest": "LOX IMVI melanoma",
    "label": "MET"
  },
  {
    "molecule": "COc1cc(/C=N\\c2nc(-c3ccc(NS(=O)(=O)c4ccc(Cl)c(OC)c4)cc3)cs2)ccc1O",
    "systemUnderTest": "LOX IMVI melanoma",
    "label": "MET"
  },
  {
    "molecule": "NC1CCCCC1N.O=[Se]([O-])[O-].[Pt+4] (centres undefined)",
    "systemUnderTest": "LOX IMVI melanoma",
    "label": "MET"
  },
  {
    "molecule": "CC(C)CC(=O)NC(C(=O)NC(C(=O)NC(CC(C)C)C(O)CC(=O)NC(C)C(=O)NC(CC(C)C)C(O)CC(=O)O)C(C)C)C(C)C (centres undefined)",
    "systemUnderTest": "LOX IMVI melanoma",
    "label": "MET"
  }
]

The measurements presented in this section are drawn from PubChem BioAssay (NCI).
